Collected OD450 values appear next to each entry.
Target: T1, mouse LAG-3 protein with hFc tag (mLAG-3-hFc protein) (mouse; human, UniProt Q61790 24-442)
T1 construct: Made in HEK293 cells; also called mouse LAG-3 extracellular domain protein; not shown: human IgG Fc fragment (hFc) of the pCpC vector
T1 sequence: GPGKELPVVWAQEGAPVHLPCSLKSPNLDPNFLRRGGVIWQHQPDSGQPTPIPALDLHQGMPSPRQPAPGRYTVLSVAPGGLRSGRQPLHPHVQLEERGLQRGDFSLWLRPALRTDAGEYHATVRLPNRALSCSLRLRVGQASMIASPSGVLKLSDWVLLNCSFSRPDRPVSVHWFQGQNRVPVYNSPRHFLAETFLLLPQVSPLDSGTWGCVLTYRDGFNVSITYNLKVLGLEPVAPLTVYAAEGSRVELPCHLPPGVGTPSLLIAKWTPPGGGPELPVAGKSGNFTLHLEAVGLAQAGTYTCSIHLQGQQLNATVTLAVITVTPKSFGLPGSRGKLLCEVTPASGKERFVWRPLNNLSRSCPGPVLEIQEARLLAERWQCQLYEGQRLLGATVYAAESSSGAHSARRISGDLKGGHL
Assay: ELISA, mLAG-3-hFc coated; 0.0000 nM
# value in OD450; strip the unit string

The binder 409D4E10 (LAG-3 mouse-human chimeric antibody) (antibody, V domains shown) VH: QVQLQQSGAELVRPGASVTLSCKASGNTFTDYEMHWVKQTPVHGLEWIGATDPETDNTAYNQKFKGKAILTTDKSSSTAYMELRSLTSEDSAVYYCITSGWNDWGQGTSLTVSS VL: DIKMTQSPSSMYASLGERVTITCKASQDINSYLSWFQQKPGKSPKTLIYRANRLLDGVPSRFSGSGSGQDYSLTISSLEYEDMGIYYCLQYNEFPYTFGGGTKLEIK showed OD450 equal to 0.09

The binder 409B11E12 (LAG-3 mouse-human chimeric antibody) (antibody, V domains shown) VH: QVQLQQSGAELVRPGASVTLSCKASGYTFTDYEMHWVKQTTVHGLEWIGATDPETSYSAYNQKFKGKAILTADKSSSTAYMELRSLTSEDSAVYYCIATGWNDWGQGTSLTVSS VL: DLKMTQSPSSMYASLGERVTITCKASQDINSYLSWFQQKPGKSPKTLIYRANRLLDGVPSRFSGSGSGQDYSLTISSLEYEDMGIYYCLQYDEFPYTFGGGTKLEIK showed OD450 equal to 0.08

The binder 556F6B8 (LAG-3 mouse-human chimeric antibody) (antibody, V domains shown, also called 556F8B8) VH: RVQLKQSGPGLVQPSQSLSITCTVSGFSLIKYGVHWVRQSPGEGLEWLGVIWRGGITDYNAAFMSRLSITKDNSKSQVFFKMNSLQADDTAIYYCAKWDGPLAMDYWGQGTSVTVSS VL: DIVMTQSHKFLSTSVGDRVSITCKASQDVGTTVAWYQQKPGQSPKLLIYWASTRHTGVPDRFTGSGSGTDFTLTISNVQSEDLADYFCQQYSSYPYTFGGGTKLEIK showed OD450 equal to 0.09

Now for a further binder.
The binder 405B8H3 (LAG-3 mouse-human chimeric antibody) (antibody, V domains shown, also called mouse-human chimeric antibody 405B8H3) VH: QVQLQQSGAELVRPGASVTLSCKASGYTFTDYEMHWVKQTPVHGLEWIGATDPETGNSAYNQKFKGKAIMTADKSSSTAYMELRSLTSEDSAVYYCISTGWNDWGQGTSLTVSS VL: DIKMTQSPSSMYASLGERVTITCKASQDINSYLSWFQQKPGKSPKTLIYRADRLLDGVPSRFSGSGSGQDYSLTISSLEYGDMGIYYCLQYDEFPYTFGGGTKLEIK showed OD450 equal to 0.1
